Target under test: recombinant human KLK5 (human) (UniProt Q9Y337)
Sequence (Q9Y337 67-293): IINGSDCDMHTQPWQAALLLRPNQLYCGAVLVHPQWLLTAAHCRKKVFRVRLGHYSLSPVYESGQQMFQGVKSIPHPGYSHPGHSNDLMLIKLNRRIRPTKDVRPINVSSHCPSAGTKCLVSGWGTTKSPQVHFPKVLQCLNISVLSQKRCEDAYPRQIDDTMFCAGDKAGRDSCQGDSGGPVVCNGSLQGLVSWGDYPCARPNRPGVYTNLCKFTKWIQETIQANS
Experimental protocol: pro-KLK1 LC/MS assay, 0.5 nM KLK5, 300 nM pro-KLK1; box column 3 of 3; no unit printed, nM per text
Listing: IC50 of selected binders
// units = nM; emit number, no label

Here's what some known entries look like.
Binder	Experimental value
9H3 (antibody, V domains shown) VH: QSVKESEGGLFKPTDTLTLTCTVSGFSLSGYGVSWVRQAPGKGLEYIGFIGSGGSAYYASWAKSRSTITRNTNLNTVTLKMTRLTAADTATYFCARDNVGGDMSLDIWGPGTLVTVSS VL: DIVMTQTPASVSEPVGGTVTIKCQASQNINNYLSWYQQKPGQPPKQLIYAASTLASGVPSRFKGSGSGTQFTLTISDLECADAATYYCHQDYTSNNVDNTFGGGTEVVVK	0.104
10C5 (antibody, V domains shown) VH: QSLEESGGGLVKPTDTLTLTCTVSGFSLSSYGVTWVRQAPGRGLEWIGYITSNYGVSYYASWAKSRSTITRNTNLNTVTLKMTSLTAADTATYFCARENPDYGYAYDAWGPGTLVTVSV VL: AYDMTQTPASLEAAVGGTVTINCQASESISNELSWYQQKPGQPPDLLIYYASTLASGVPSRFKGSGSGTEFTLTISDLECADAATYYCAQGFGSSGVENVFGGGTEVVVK	0.0795

Switching to the query record.
Incoming: Name the recorded IC50 for 2-3F4 (antibody, V domains shown) VH: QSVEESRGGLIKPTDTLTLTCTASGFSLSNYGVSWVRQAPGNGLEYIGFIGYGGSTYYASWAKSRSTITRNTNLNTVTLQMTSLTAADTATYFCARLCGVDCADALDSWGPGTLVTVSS VL: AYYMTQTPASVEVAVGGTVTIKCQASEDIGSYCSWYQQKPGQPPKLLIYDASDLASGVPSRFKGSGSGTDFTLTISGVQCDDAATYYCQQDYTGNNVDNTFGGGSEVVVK .
Outgoing: 0.0279
